Would you kindly list Kd for each of these binders?
Target: T1, AAV5 (adeno-associated virus 5)
T1 construct: also called adeno-associated virus serotype 5
Test: SPR, AAV amine-coupled to CM5 chip;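 note: nanobodies flowed as analyte at seven concentrations spanning 1–100 nM over immobilized AAV (500–800 RU), kinetic constants derived by fitting the binding curves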
Please give a number only; it is taken to be in nM.

Ask: Query: Kd; subject: A4-051 (VHH) VHH: VQLQESGGGLVQPGGSLRLSCAASGSSFVINTMGWYRRAPGKQRELVAAVTRGGSTNYADSVKGRFTISRDNAKNTVYLQMNSLRPEDTAVYYCHVDEVRQSSWTTSNLWGQGTQVTVSS
Reply: 748

Ask: Query: Kd; subject: A4-100 (VHH) VHH: VQLQESGGGLVQPGGSLRLSCAASGSIFVINTMGWYRQAPGKQRELVASLTRGGSTNYADSVKGRFTISRDNDKNTIYLQMNSLRPEDTAVYYCHVDEVRESTWTTSNIWGQGTQVTVSS
Reply: 6.75

Ask: Query: Kd; subject: A4-071 (VHH) VHH: VQLQESGGGAVQAGGSLRLSCAASGSTFSINTMGWYRQAPGKQRELVATVTRGGSTNYGDFVKGRFTISRDNAKNTVYLQMNTLRPEDTAVYYCHLDEVRQSSWTTSNLWGQGTQVTVSS
Reply: 9.46

Ask: Query: Kd; subject: A4-058 (VHH) VHH: VQLQESGGGLVQPGGSLRLSCAASGSIFSINTMGWYRQAPAKQREIVATVTRDGSTNYAESVKGRFTISRDNAKNTVYLQMNSLRPEDTAVYYCHLDEVRQSTWTTSNLWGQGTQVTVSS
Reply: 24.5
